TESTED SYSTEM: T1, human GIP receptor (human, UniProt P48546 22-466)
T1 sequence (looked up): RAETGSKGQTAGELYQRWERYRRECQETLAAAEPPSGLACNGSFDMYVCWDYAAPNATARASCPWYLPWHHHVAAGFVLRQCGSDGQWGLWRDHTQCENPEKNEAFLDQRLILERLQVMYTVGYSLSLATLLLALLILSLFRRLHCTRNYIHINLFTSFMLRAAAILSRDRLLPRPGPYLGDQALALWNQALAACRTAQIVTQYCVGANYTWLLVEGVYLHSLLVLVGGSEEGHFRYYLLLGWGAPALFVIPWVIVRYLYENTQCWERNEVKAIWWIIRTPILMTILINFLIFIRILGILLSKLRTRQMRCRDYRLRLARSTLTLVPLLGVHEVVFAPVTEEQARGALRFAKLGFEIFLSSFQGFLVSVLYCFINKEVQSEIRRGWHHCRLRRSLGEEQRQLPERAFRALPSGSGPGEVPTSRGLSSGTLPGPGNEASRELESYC
ASSAY PROTOCOL: cell-based or functional assay
Non-standard residues stand in square brackets, D forms with d. No end group written: not given here. Met(O2) = CS(=O)(=O)CC[C@H](N)C(=O)O; Met(O) = CS(=O)CC[C@H](N)C(=O)O; αMeOrn = C[C@](N)(CCCN)C(=O)O; Nle = CCCC[C@H](N)C(=O)O; Aib = CC(C)(N)C(=O)O
Binary label based on EC50 hGIP R [pM], cAMP formation with cut-off 7 pM: below gives met, not below gives not met.

Study these solved cases before continuing.
BINDER | ASSIGNED CATEGORY
Y[Aib]EGTFTSDLSIQLEEEAV[αMeOrn]LFIEWLKAGGPSSGAPPPS-NH2 [SEQ ID NO: 19] | met
Y[Aib]EGTFTSDLSIQLEEEAV[Aib]LFIEWLKAGGPSSGAPPPS-NH2 [SEQ ID NO: 16] | met
Y[Aib]EGTFTSDLSIQ[Met(O)]EKEAVRLFIEWLKAGGPSSGAPPPS-NH2 [SEQ ID NO: 13] | not met
Y[Aib]EGTFTSDLSIQ[Nle]EKEAVRLFIEWLKAGGPSSGAPPPSK-NH2 [SEQ ID NO: 12] | not met

# ---- query binder ----
Problem: For the binder Y[Aib]EGTFTSDLSIQ[Met(O2)]EKEAVRLFIEWLKAGGPSSGAPPPS-NH2 [SEQ ID NO: 14] , is EC50 hGIP R [pM], cAMP formation under 7 pM?
met
